Ref: ChEMBL document CHEMBL5518226

Test system: Staphylococcus aureus
Assay: Antibacterial activity against methicillin resistant Staphylococcus aureus clinical isolate 20-34 assessed as inhibition of bacterial growth incubated for 24 hrs by CLSI protocol based broth microdilution method
Assay type: functional
assay metric: MIC (µg/mL)
Quick reminder: number only, in µg/mL, skip the unit.

Look over these answered cases.
molecular string: CN[C@H](CC(C)C)C(=O)N[C@H]1C(=O)N[C@@H](CC(N)=O)C(=O)N[C@H]2C(=O)N[C@H]3C(=O)N[C@H](C(=O)N[C@H](C(=O)NCCCc4cn(-c5ccc(OC(F)F)cc5)nn4)c4cc(O)cc(O)c4-c4cc3ccc4O)[C@H](O)c3ccc(c(Cl)c3)Oc3cc2cc(c3O[C@@H]2O[C@H](CO)[C@@H](O)[C@H](O)[C@H]2O[C@H]2C[C@](C)(N)[C@H](O)[C@H](C)O2)Oc2ccc(cc2Cl)[C@H]1O
unit string: µg/mL
value: 0.06
--
molecular string: CN[C@H](CC(C)C)C(=O)N[C@H]1C(=O)N[C@@H](CC(N)=O)C(=O)N[C@H]2C(=O)N[C@H]3C(=O)N[C@H](C(=O)N[C@H](C(=O)O)c4cc(O)cc(O)c4-c4cc3ccc4O)[C@H](O)c3ccc(c(Cl)c3)Oc3cc2cc(c3O[C@@H]2O[C@H](CO)[C@@H](O)[C@H](O)[C@H]2O[C@H]2C[C@](C)(NCc3ccc(C#Cc4ccccc4)cc3)[C@H](O)[C@H](C)O2)Oc2ccc(cc2Cl)[C@H]1O
unit string: µg/mL
value: 1

# evaluate next
-- ask Recorded MIC for CN[C@H](CC(C)C)C(=O)N[C@H]1C(=O)N[C@@H](CC(N)=O)C(=O)N[C@H]2C(=O)N[C@H]3C(=O)N[C@H](C(=O)N[C@H](C(=O)NCCCc4cn(Cc5ccc(Cl)c(Cl)c5)nn4)c4cc(O)cc(O)c4-c4cc3ccc4O)[C@H](O)c3ccc(c(Cl)c3)Oc3cc2cc(c3O[C@@H]2O[C@H](CO)[C@@H](O)[C@H](O)[C@H]2O[C@H]2C[C@](C)(N)[C@H](O)[C@H](C)O2)Oc2ccc(cc2Cl)[C@H]1O , please?
-- reply 0.125
